# TARGET: TSSK2 (human) (UniProt Q96PF2)
# Sequence (Q96PF2 whole entry, looked up): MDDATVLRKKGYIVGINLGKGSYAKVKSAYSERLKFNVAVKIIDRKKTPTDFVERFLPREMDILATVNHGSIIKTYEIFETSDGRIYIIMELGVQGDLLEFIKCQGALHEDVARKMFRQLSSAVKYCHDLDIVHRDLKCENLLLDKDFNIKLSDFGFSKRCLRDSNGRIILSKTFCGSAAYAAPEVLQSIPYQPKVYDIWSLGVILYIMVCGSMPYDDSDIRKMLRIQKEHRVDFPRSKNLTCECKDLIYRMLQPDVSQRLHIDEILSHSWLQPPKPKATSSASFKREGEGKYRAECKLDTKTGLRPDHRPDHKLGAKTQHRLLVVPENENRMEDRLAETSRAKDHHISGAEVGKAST
# ASSAY_INFO: radiometric filter-binding kinase assay, Kinase HotSpot
# EXPERIMENTAL_CONTEXT: compound 0.5 µM; ATP 10 µM
Consider the following compounds; for each one, report its residual activity.
Record the value in %, omitting the unit from your answer.

Given item Cn1sc(=O)n(Cc2ccccc2)c1=O , the value recorded as its residual activity is 100

According to the records, this compound O=C1Cc2c([nH]c3ccc(Br)cc23)-c2ccccc2N1 displays residual activity of 99.3

Looking up O=C1Nc2ccccc2/C1=C1/Nc2ccccc2/C1=N\OCCC(O)CO (configuration not stated) , I found its residual activity recorded as 96.2

Reported residual activity ( COc1ccc(CNC(=O)Nc2ncc([N+](=O)[O-])s2)cc1 ) = 105

Entry Cc1nc2cc3nc(-c4cccs4)cnc3cc2n1C , residual activity reported as 98.2

// O=C1NC(=O)C(c2cn(CCCO)c3ncccc23)=C1c1cnccn1 : residual activity value = 119

CN([C@@H](Cc1ccc(OS(=O)(=O)c2cccc3cnccc23)cc1)C(=O)N1CCN(c2ccccc2)CC1)S(=O)(=O)c1cccc2cnccc12 has a reported residual activity of 105

Field residual activity (entry CC(C)[C@H](CO)Nc1nc(Nc2cc(N)cc(Cl)c2)c2ncn(C(C)C)c2n1 ) reads 102

Nc1nccc(-c2c(-c3ccc(F)cc3)ncn2C2CCNCC2)n1 yielded residual activity of 100

CN(C)C[C@H]1CCn2c(c(C3=C(c4cn(C)c5ccccc45)C(=O)NC3=O)c3ccccc32)C1 has a reported residual activity of 97.1

Lab note: CC(=O)O/N=C1\C(=C2\C(=O)Nc3cc(Br)ccc32)Nc2ccccc21 gave residual activity of 101

GET /value?item= O=C1Nc2ccccc2/C1=C1\Nc2ccccc2\C1=N/O &field=residual activity returns 97.7

residual activity reported for this compound Oc1ccc(Nc2nc(-c3ccc(Cl)cc3)cs2)cc1 : 102

Recorded result, O=C(O)/C=C/c1cc(Br)c(Br)c(Br)c1Br , residual activity: 98.1

Measured residual activity of Cn1nc2c3c(cccc31)C(=O)c1ccccc1-2 : 95.4

// residual activity value for Nc1nnc2[nH]c3ccccc3nc1-2 : 110

What the record says about CC(C)c1nn(-c2c(Cl)cccc2Cl)c2nc(Cc3ccc(OCCO)cc3)nc(O)c12 : residual activity is 105

Recorded result, CCN(CC)CCCCN1c2ccccc2Oc2ccc(Cl)cc21 , residual activity: 103

What the record says about O=C1NC(=O)/C(=C\c2ccc3nccnc3c2)S1 : residual activity is 88.7

Noted for O=C(Nc1cccc(Nc2cc(Nc3cccc(C(F)(F)F)c3)ncn2)c1)C1CC1 : its residual activity reads 103

GET /value?item= COc1ccc(OC)c2c(=S)c3ccccc3[nH]c12 &field=residual activity returns 108

The compound identified as Cn1cnc2cc3c(Nc4cccc(Br)c4)ncnc3cc21 registered its residual activity at 111

Briefly, residual activity measured for CCn1cnc2c(Nc3cccc(Cl)c3)nc(N[C@@H]3CCCC[C@@H]3N)nc21 : 109

compound COc1cc2ncc(-c3ccccc3)nc2cc1OC , residual activity observed: 85.7

For reference, reported residual activity for COc1cc2ncnc(N3CCN(C(=O)Nc4ccc(Oc5ccccc5)cc4)CC3)c2cc1OC stands at 79.1

The reported value for O=C1NC(=O)C(c2c[nH]c3ccccc23)=C1c1c[nH]c2ccccc12 in terms of residual activity is 110

So for O=C(CCCc1ccc(-c2ccccc2F)cc1)Nc1ccc(O)cc1 , the logged residual activity turned out to be 115

src = the kinase profiling compilation of Christmann-Franck et al. (2016)
